Tested on: Alopecurus myosuroides (ALOMY)
Assay: Glasshouse assay for herbicidal activity, pre-/post-emergence (percentage phytotoxicity)
Assay type: in vivo
Settings: Alopecurus myosuroides, 360 h; Rate 250 g/ha; post-emergence; visual assessment 15 DAA; 100%=total damage, 0%=no damage; read-out: Post-emergence herbicidal activity (percentage phytotoxicity), ALOMY POST
TEST_READOUT: pest or weed control at 250 g/ha (%)
Give the quantity in %, number only.

Recorded pest or weed control at 250 g/ha, per entry:
[
  {
    "MOLECULE": "Cc1cc(C)c(C2C(=O)CC(CCNC(=O)NC(=O)c3c(F)cccc3F)C2=O)c(C)c1 (centres unmarked)",
    "pest or weed control at 250 g/ha [%]": 90
  },
  {
    "MOLECULE": "CC#Cc1cc(C)c(C2C(=O)CC(CCNC(=O)NC(C)(C)C)C2=O)c(C)c1 (centres unmarked)",
    "pest or weed control at 250 g/ha [%]": 90
  },
  {
    "MOLECULE": "Cc1cc(C)c(C2C(=O)CC(CCNC(=O)NC(=O)c3ccccn3)C2=O)c(C)c1 (centres unmarked)",
    "pest or weed control at 250 g/ha [%]": 90
  },
  {
    "MOLECULE": "Cc1cc(C)c(C2C(=O)CC(CCNC(=O)NC(=O)c3c(Cl)cccc3Cl)C2=O)c(C)c1 (centres unmarked)",
    "pest or weed control at 250 g/ha [%]": 90
  }
]

Moving on to the next molecule.
Look at this molecule and give its reported pest or weed control at 250 g/ha. Cc1cc(C)c(C2C(=O)CC(CCNc3ncc(Cl)cn3)C2=O)c(C)c1 (centres unmarked)
90

###

Tested on: Echinochloa crus-galli (ECHCG)
Assay: Glasshouse assay for herbicidal activity, pre-/post-emergence (percentage phytotoxicity)
Assay type: in vivo
Details: Echinochloa crus-galli, pre-emergence, 480 h, Rate 250 g/ha; pre-emergence; visual assessment 20 DAA; 100%=total damage, 0%=no damage; read-out: Pre-emergence herbicidal activity (percentage phytotoxicity), ECHCG PRE
Listed compounds paired with reported pest or weed control at 250 g/ha
Give the quantity in %, number only.

Recorded pest or weed control at 250 g/ha, per entry:
[
  {
    "COMPOUND": "Cc1cc(C)c(C2C(=O)CC(CCNC(=O)NC(=O)c3ccccc3C)C2=O)c(C)c1 (centres unmarked)",
    "TESTED_SYSTEM": "Echinochloa crus-galli (ECHCG)",
    "TEST_READOUT": "pest or weed control at 250 g/ha",
    "RESULT_NUMBER": 90
  },
  {
    "COMPOUND": "Cc1cc(C)c(C2C(=O)CC(CCNC(=O)NC(=O)c3ccccc3)C2=O)c(C)c1 (centres unmarked)",
    "TESTED_SYSTEM": "Echinochloa crus-galli (ECHCG)",
    "TEST_READOUT": "pest or weed control at 250 g/ha",
    "RESULT_NUMBER": 60
  },
  {
    "COMPOUND": "Cc1cc(C)c(C2C(=O)CC(CCNc3ncc(Br)cn3)C2=O)c(C)c1 (centres unmarked)",
    "TESTED_SYSTEM": "Echinochloa crus-galli (ECHCG)",
    "TEST_READOUT": "pest or weed control at 250 g/ha",
    "RESULT_NUMBER": 80
  },
  {
    "COMPOUND": "Cc1cc(C)c(C2C(=O)CC(CCNc3ccc([N+](=O)[O-])cc3)C2=O)c(C)c1 (centres unmarked)",
    "TESTED_SYSTEM": "Echinochloa crus-galli (ECHCG)",
    "TEST_READOUT": "pest or weed control at 250 g/ha",
    "RESULT_NUMBER": 10
  },
  {
    "COMPOUND": "Cc1cc(-n2cc(Cl)cn2)cc(C)c1C1C(=O)CC(CCNc2ccc([N+](=O)[O-])cn2)C1=O (centres unmarked)",
    "TESTED_SYSTEM": "Echinochloa crus-galli (ECHCG)",
    "TEST_READOUT": "pest or weed control at 250 g/ha",
    "RESULT_NUMBER": 0
  },
  {
    "COMPOUND": "COc1ccc(S(=O)(=O)NCCC2CC(=O)C(c3c(C)cc(C)cc3C)C2=O)cc1 (centres unmarked)",
    "TESTED_SYSTEM": "Echinochloa crus-galli (ECHCG)",
    "TEST_READOUT": "pest or weed control at 250 g/ha",
    "RESULT_NUMBER": 50
  }
]

Look at this compound and give its reported pest or weed control at 250 g/ha. Cc1cc(C)c(C2C(=O)CC(CCNC(=S)NC(=O)c3ccccc3)C2=O)c(C)c1 (centres unmarked)
70

Look at this compound and give its reported pest or weed control at 250 g/ha. Cc1cc(-c2ncc(Cl)cc2F)cc(C)c1C1C(=O)CC(CCNC(=O)Nc2ccccn2)C1=O (centres unmarked)
80

Look at this compound and give its reported pest or weed control at 250 g/ha. Cc1cc(-c2ncc(Cl)cc2F)cc(C)c1C1C(=O)CC(CCNC(=O)N(C)c2ccccn2)C1=O.Cl (centres unmarked)
90

Look at this compound and give its reported pest or weed control at 250 g/ha. Cc1cc(C)c(C2C(=O)CC(CCNC(=O)NO)C2=O)c(C)c1 (centres unmarked)
0

Look at this compound and give its reported pest or weed control at 250 g/ha. Cc1cc(C)c(C2C(=O)CC(CCNC(=O)NC(=O)c3ccc(C(F)(F)F)cc3F)C2=O)c(C)c1 (centres unmarked)
100

Look at this compound and give its reported pest or weed control at 250 g/ha. Cc1cc(C)c(C2C(=O)CC(CCNC(=O)N(C)C)C2=O)c(C)c1 (centres unmarked)
90

Look at this compound and give its reported pest or weed control at 250 g/ha. Cc1cc(-c2ncc(Br)cn2)cc(C)c1C1C(=O)CC(CCNC(=O)C2=NOC(C)(C)C2)C1=O (centres unmarked)
90

Look at this compound and give its reported pest or weed control at 250 g/ha. Cc1cc(-n2cc(Cl)cn2)cc(C)c1C1C(=O)CC(CCNC(=O)Nc2ccccn2)C1=O.Cl (centres unmarked)
90

Look at this compound and give its reported pest or weed control at 250 g/ha. Cc1cc(C)c(C2C(=O)CC(CCNC(=S)Nc3ccc(F)cc3)C2=O)c(C)c1 (centres unmarked)
30

Look at this compound and give its reported pest or weed control at 250 g/ha. Cc1cc(C)c(C2C(=O)CC(CCNS(=O)(=O)c3ccccc3C)C2=O)c(C)c1 (centres unmarked)
30

Look at this compound and give its reported pest or weed control at 250 g/ha. Cc1cc(C)c(C2C(=O)CC(CCNc3ccc(C#N)cc3C(F)(F)F)C2=O)c(C)c1 (centres unmarked)
90

Look at this compound and give its reported pest or weed control at 250 g/ha. CC#Cc1cc(C)c(C2C(=O)CC(CCNC(=O)NC(C)(C)C)C2=O)c(C)c1 (centres unmarked)
100

Look at this compound and give its reported pest or weed control at 250 g/ha. Cc1cc(C)c(C2C(=O)CC(CCNC(=O)NCc3ccccc3)C2=O)c(C)c1 (centres unmarked)
0

Look at this compound and give its reported pest or weed control at 250 g/ha. Cc1cc(C)c(C2C(=O)CC(CCNc3ccc(C(F)(F)F)cn3)C2=O)c(C)c1 (centres unmarked)
100

Source: patent US10301295B2
